B1: CDC25B (parent)
chain: ELKTFRLKTRSWAGERSRRELCSR

- Variants of: B1
- Test Summary: protein stability index of a GFP-peptide fusion (GPS, HEK-293T) (PSI 1-6); higher = more stable;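 also: lentivirally expressed fusions sorted by FACS into six bins by GFP to DsRed ratio, PSI derived from sequencing read proportions per bin multiplied by bin number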
- Condition Notes: c terminus: a fixed tail appended
Reported Endpoint: protein stability index
Response field accepts a number only; no unit should be typed.

Memo: L7E , reported protein stability index: 4.07

Memo: K8M , reported protein stability index: 2.8

Memo: L2Q , reported protein stability index: 4.5

Memo: F5V , reported protein stability index: 3.96

Memo: R16C , reported protein stability index: 2.97

Memo: S11I , reported protein stability index: 2.71

Memo: R6A , reported protein stability index: 2.78

Memo: R6Q , reported protein stability index: 3.75

Memo: A13P , reported protein stability index: 3.84

Memo: L7M , reported protein stability index: 3.81

Memo: S17Y , reported protein stability index: 3.27

Memo: T4F , reported protein stability index: 2.79

Memo: S17A , reported protein stability index: 3.4

Memo: R18M , reported protein stability index: 3.36

Memo: S23H , reported protein stability index: 3.13

Memo: K8N , reported protein stability index: 2.99

Memo: F5A , reported protein stability index: 4.09

Memo: F5W , reported protein stability index: 2.87

Memo: R18I , reported protein stability index: 3.04

Memo: K3Y , reported protein stability index: 2.91

Memo: L21H , reported protein stability index: 3.31

Memo: C22Q , reported protein stability index: 3.26

Where do the numbers come from? From the supplement of paper PMC10567573.
